- ASSAY TEXT: Human HepG2 cell viability assay in 384 well format
- Assay type: toxicity, cell-based
- Design: dose 125 nL, time 70.5 hour; concentration not given beside the values
- SETTINGS: HepG2 cells, read-out: Inhibition
# Lookup of reported cytotoxicity at 70.5 h keyed by entry
Respond with the bare value in %.

Worked cases, cytotoxicity at 70.5 h given:
COMPOUND | cytotoxicity at 70.5 h / %
CCCc1noc(CCC(=O)N2CCCC2c2ccncc2)n1 (stereo not drawn) | -5.95
O=C(C(C1CC1)C1CC1)N1CCC(n2ccnn2)CC1 | -9.3
Cc1ccc(CN2CC[C@@H]3[C@@H](CO[C@H]3CN3CCN(C)CC3)C2)s1 | 14.3

[Q] What does the data say about its cytotoxicity at 70.5 h? Entry: CCn1ccnc1CN1CCC(Oc2ccccc2F)(C(=O)O)CC1
[A] -0.995

[Q] What does the data say about its cytotoxicity at 70.5 h? Entry: CCCN(CC)c1ccc(C(=O)N2CCCC2c2cnn(C)c2)cn1 (stereo not drawn)
[A] -5.94

[Q] What does the data say about its cytotoxicity at 70.5 h? Entry: Cc1cccc(NC(=O)N2CCCn3cnc(CN(C)C(C)C)c3C2)c1
[A] 17.2

----------
# Lookup of reported cytotoxicity at 70.5 h keyed by entry
- ASSAY TEXT: Human HepG2 cell viability assay in 384 well format
- Type: toxicity, cell-based
- Set-up: dose 125 nL, time 70.5 hour; concentration not given beside the values
- SETTINGS: HepG2 cells, read-out: Inhibition
Respond with the bare value in %.

Worked cases, cytotoxicity at 70.5 h given:
MOLECULE | MEASURED PROPERTY | UNIT OF MEASUREMENT | REPORTED
c1coc(CN2C[C@@H]3CCCO[C@@H]3[C@H](N3CCCC3)C2)c1 | cytotoxicity at 70.5 h | % | -8.85
CC(C)c1noc(CS(=O)(=O)CC(=O)NCc2cccs2)n1 | cytotoxicity at 70.5 h | % | -9.72
Cc1ccc(C(=O)N2CCC3(CCC(C(=O)NCC4CC4)O3)CC2)o1 (stereo unspecified) | cytotoxicity at 70.5 h | % | -12.5
Cc1nn(C)c(C)c1C1COCCN1c1ncnc2sccc12 (stereo unspecified) | cytotoxicity at 70.5 h | % | -11.4
CCc1nc(C2CCCN(c3ncccn3)C2)no1 (stereo unspecified) | cytotoxicity at 70.5 h | % | -2.54

[Q] What does the data say about its cytotoxicity at 70.5 h? Entry: Cn1cc(C2CCCN2C(=O)c2cn(-c3ccccc3)nn2)cn1 (stereo unspecified)
[A] -0.276

[Q] What does the data say about its cytotoxicity at 70.5 h? Entry: NC(=O)c1ccc(CN2C(=O)C3(CCNCC3)Nc3ccccc32)cc1
[A] 26.6

[Q] What does the data say about its cytotoxicity at 70.5 h? Entry: C=Cc1ccc(C(=O)N2CCCC(Nc3ccccc3)C2)cc1 (stereo unspecified)
[A] 26.6

----------
- ASSAY TEXT: Human HepG2 cell viability assay in 384 well format
- Format: toxicity, cell-based
- Parameters: dose 125 nL, time 70.5 hour; concentration not given beside the values
- SETTINGS: HepG2 cells, read-out: Inhibition
MEASURED PROPERTY: cytotoxicity at 70.5 h (%)
Respond with the bare value in %.

MOLECULE | REPORTED
O=C(NC1CC1)[C@@H]1CCO[C@@H]2CCN(CC3CCC3)C[C@H]21 | -2.8

# context switch: different molecule, same cytotoxicity at 70.5 h
[Q] What does the data say about its cytotoxicity at 70.5 h? Entry: CC(Oc1cccc(Cl)c1)C(=O)Nc1cnn(CCN(C)C)c1 (stereo unspecified)
[A] 23.7
